Origin of values: patent US12497393B2

Tested on: Klebsiella Pneumoniae
Assay: Antibacterial activity MIC assay (two-fold dilution agar plating)
Assay type: cell-based
Settings: Klebsiella pneumoniae, Klebsiella Pneumoniae 16-14, ESBLs(+); read-out: Minimal Inhibitory Concentration (MIC)
Method: Antibacterial Activity-Evaluating Method (MIC Assay) In this study, the compounds of the present invention were tested for their antibacterial activities by using two-fold dilution agar plating method and Denley Multipoint Inoculator A400 according to the guidelines of the CLSI/NCCLS standard. […] The drug concentration with no microbial growth in the well was recorded as the lowest Minimal Inhibitory Concentration (MIC).
The threshold is 0.5 µg/mL. Values of MIC beneath it are tagged satisfied; values meeting or exceeding it are tagged not satisfied.

Compound: CC(C)[C@H](O/N=C(\C(=O)N[C@@H]1C(=O)N(OS(=O)(=O)O)C1(C)C)c1csc(N)n1)C(=O)O [Compound A-4]
Assigned Class: satisfied
//
Compound: C[C@H]1[C@H](NC(=O)/C(=N\OC(C)(C)C(=O)O)c2csc(N)n2)C(=O)N1S(=O)(=O)O [AZN, aztreonam, reference compound]
Assigned Class: not satisfied
//
Compound: CC(C)[C@@H](O/N=C(\C(=O)N[C@@H]1C(=O)N(OS(=O)(=O)O)C1(C)C)c1csc(N)n1)C(=O)O [Compound A-5]
Assigned Class: not satisfied
//
Compound: CC1(C)[C@H](NC(=O)/C(=N\OC2(C(=O)O)CCC2)c2csc(N)n2)C(=O)N1OS(=O)(=O)O [Compound A-2]
Assigned Class: satisfied
//
Compound: CC1(C)[C@H](NC(=O)/C(=N\OC2(C(=O)O)CCCCC2)c2csc(N)n2)C(=O)N1OS(=O)(=O)O [Compound A-7]
Assigned Class: not satisfied
//
Compound: CC1(C)[C@H](NC(=O)/C(=N\OC2(C(=O)O)CC2)c2csc(N)n2)C(=O)N1OS(=O)(=O)O [Compound A-1]
Assigned Class: satisfied

---

Listing: MIC of selected compounds
Tested on: Proteus mirabilis

Compound: C[C@H]1COc2c(N3CCN(C)CC3)c(F)cc3c(=O)c(C(=O)O)cn1c23 [Levofloxacin, levofloxacin, reference compound]
MIC: ≤ 0.03 µg/mL
--
Compound: CC1(C)[C@H](NC(=O)/C(=N\OC2(C(=O)O)CCC2)c2csc(N)n2)C(=O)N1OS(=O)(=O)O [Compound A-2]
MIC: ≤ 0.03 µg/mL
--
Compound: CC(C)[C@H](O/N=C(\C(=O)N[C@@H]1C(=O)N(OS(=O)(=O)O)C1(C)C)c1csc(N)n1)C(=O)O [Compound A-4]
MIC: ≤ 0.03 µg/mL
--
Compound: CC1(C)[C@H](NC(=O)/C(=N\OC2(C(=O)O)CCCCC2)c2csc(N)n2)C(=O)N1OS(=O)(=O)O [Compound A-7]
MIC: 0.12 µg/mL
--
Compound: CC1(C)[C@H](NC(=O)/C(=N\OC2(C(=O)O)CCCC2)c2csc(N)n2)C(=O)N1OS(=O)(=O)O [Compound A-3]
MIC: 0.06 µg/mL
--
Compound: C[C@H]1[C@H](NC(=O)/C(=N\OC(C)(C)C(=O)O)c2csc(N)n2)C(=O)N1S(=O)(=O)O [AZN, aztreonam, reference compound]
MIC: ≤ 0.03 µg/mL
--
Compound: CC(C)[C@@H](O/N=C(\C(=O)N[C@@H]1C(=O)N(OS(=O)(=O)O)C1(C)C)c1csc(N)n1)C(=O)O [Compound A-5]
MIC: 1 µg/mL
--
Compound: CC1(C)[C@H](NC(=O)/C(=N\OC2(C(=O)O)CC2)c2csc(N)n2)C(=O)N1OS(=O)(=O)O [Compound A-1]
MIC: ≤ 0.03 µg/mL
